Field: Activity (relative rate of hydrolysis). Provide a value for each of the compounds that follow.
subject of test: HvExoI W434A mutant (Hordeum vulgare, UniProt Q9XEI3, W459A)
Sequence (Q9XEI3 26-630 W459A): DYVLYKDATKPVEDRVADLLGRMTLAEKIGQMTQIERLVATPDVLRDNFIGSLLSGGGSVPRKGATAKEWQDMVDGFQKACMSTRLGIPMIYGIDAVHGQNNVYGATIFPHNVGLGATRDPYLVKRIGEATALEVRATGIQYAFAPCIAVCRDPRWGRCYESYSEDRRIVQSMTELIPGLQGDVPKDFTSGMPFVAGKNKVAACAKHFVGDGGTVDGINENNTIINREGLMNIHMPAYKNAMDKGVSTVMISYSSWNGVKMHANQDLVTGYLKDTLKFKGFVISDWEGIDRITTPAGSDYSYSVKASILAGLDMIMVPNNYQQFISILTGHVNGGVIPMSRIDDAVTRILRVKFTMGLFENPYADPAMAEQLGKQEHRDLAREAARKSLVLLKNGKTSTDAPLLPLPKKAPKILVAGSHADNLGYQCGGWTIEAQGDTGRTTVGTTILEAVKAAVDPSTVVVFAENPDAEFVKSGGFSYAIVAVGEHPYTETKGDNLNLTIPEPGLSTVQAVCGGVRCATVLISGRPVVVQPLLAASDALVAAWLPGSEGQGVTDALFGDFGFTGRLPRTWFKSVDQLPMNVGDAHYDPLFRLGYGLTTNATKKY
method notes: Relative rates of hydrolysis of poly-, oligosaccharides and aryl-glycosides
Type: biochemical
condition label: substance is the substrate, nd = activity not detected
Protocol: Dependency of activities of WT and mutant HvExoI on pH (McIlvaine buffers in the pH range of 3.5–8.5 at 30 °C) and temperature (100 mM sodium acetate buffer, pH 5.25, temperature range 0–80 °C, 15 min incubations) were determined using 0.2% (w/v) 4NP-Glc[21],[59]. Relative rates of hydrolysis of β-linked poly-, oligosaccharides, and aryl-glucosides were determined using near-homogenous HvExoI at 50 pmoles. […]
One number for each entry, in μmole/min per mg protein.

OC[C@H]1O[C@@H](O[C@@H]2[C@@H](O)[C@H](O[C@@H]3[C@@H](O)[C@H](O[C@@H]4[C@@H](O)[C@H](O[C@@H]5[C@@H](O)[C@H](O[C@@H]6[C@@H](O)[C@H](O[C@@H]7[C@@H](O)[C@H](O)O[C@H](CO)[C@H]7O)O[C@H](CO)[C@H]6O)O[C@H](CO)[C@H]5O)O[C@H](CO)[C@H]4O)O[C@H](CO)[C@H]3O)O[C@H](CO)[C@H]2O)[C@H](O)[C@@H](O)[C@@H]1O [Laminariheptaose]    1.0
OC[C@H]1O[C@@H](O[C@@H]2[C@@H](O)[C@H](O[C@@H]3[C@@H](O)[C@H](O[C@H]4[C@H](O)[C@@H](CO)OC(O)[C@@H]4O)O[C@H](CO)[C@H]3O)O[C@H](CO)[C@H]2O)[C@H](O)[C@@H](O)[C@@H]1O (stereo partly shown) [Laminaritetraose]    1.1
OC[C@H]1O[C@@H](O[C@@H]2[C@@H](O)[C@H](O[C@@H]3[C@@H](O)[C@H](O[C@@H]4[C@@H](O)[C@H](O[C@@H]5[C@@H](O)[C@H](O[C@H]6[C@H](O)[C@@H](CO)OC(O)[C@@H]6O)O[C@H](CO)[C@H]5O)O[C@H](CO)[C@H]4O)O[C@H](CO)[C@H]3O)O[C@H](CO)[C@H]2O)[C@H](O)[C@@H](O)[C@@H]1O (stereo partly shown) [Laminarihexaose]    1.0
OC[C@H]1O[C@@H](O[C@@H]2[C@@H](O)[C@H](O[C@H]3[C@H](O)[C@@H](CO)OC(O)[C@@H]3O)O[C@H](CO)[C@H]2O)[C@H](O)[C@@H](O)[C@@H]1O (stereo partly shown) [Laminaritriose]    0.9
OC[C@H]1O[C@@H](O[C@@H]2[C@@H](O)[C@H](O[C@@H]3[C@@H](O)[C@H](O[C@@H]4[C@@H](O)[C@H](O[C@@H]5[C@@H](O)[C@H](O)O[C@H](CO)[C@H]5O)O[C@H](CO)[C@H]4O)O[C@H](CO)[C@H]3O)O[C@H](CO)[C@H]2O)[C@H](O)[C@@H](O)[C@@H]1O [Laminaripentaose]    1.0
O=[N+]([O-])c1ccc(O[C@@H]2O[C@H](CO)[C@@H](O)[C@H](O)[C@H]2O)cc1 [4NP-Glc, 4-nitrophenyl β-D-glucopyranoside]    6.1

API: the following record is the query input.
# OC[C@H]1O[C@@H](O[C@H]2[C@H](O)[C@@H](CO)OC(O)[C@@H]2O)[C@H](O)[C@@H](O)[C@@H]1O (stereo partly shown) [Laminaribiose] with HvExoI W434A mutant (Hordeum vulgare, UniProt Q9XEI3, W459A): Activity (relative rate of hydrolysis) is 0.5
